Assignment: determine reported self-cleavage for the given variants.
B1: LINE1-full (parent)
chain: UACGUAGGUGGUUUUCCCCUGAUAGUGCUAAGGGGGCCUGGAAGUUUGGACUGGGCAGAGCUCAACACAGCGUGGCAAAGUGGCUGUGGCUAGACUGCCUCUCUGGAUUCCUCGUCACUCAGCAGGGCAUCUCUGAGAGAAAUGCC

- Variants of: B1
- EXPERIMENT NOTES: self-cleavage, relative activity (ratio to wild type); higher = more cleavage; in vitro, sequencing; the parent is a self-cleaving ribozyme
Give bare numbers.

ORDERED RESIDUES	OBSERVED VALUE
UACGUAGGUGGUUUUCCCCUGAUAGUGCUAAGGGGGCCCGGAAGUUUGGACUGGGCAGAGCUCAACACAGCGUGGCAAAGUGGCUGUGGCUAGACUGCCUCCCUGGAUUCCUCGUCACUCAGCAGGGCAUCUCUGAGAGAAAUGCC [U39C U102C]	0.99
UACGUAGGUGGUUUUCCCCUGAUAGUGCUAAGGGGGCCUGGAAGUUUGGACUGGGCAGAGCUCAACACAGCGUGGCAAAGUGGCUGUGGCUAGACUGCCUCUCUGGAUUCCUCGGCACUCAGCAGGGCGUCUCUGAGAGAAAUGCC [U115G A129G]	1.16
UACGUAGGUGGUUUACCCCUGAUUGUGCUAAGGGGGCCUGGAAGUUUGGACUGGGCAGAGCUCAACACAGCGUGGCAAAGUGGCUGUGGCUAGACUGCCUCUCUGGAUUCCUCGUCACUCAGCAGGGCAUCUCUGAGAGAAAUGCC [U15A A24U]	1.12

Okay, here is my list. What is self-cleavage for each of these?
1. UACGUAGGUGGUUUUCCCCUGAUAGAGCUAAGGGGGCCUGGAAGUUUGGACUGGGCAGAGCUCAACACAGCGUGGCGAAGUGGCUGUGGCUAGACUGCCUCUCUGGAUUCCUCGUCACUCAGCAGGGCAUCUCUGAGAGAAAUGCC [U26A A77G]
2. UACGUAGGUGGUUUUCCCCUGAUAGUGCUAAGGGGGCCUGGAAGUUUGGACUGGGCAGAGCUCAACACAGCGUGGCAAAGUGGCUGUGGCUAGACUGUCUCUCUGGAUUCCUCGUCACUCAGCAGGGCAUCUCUGAGAGAGAUGCC [C98U A141G]

[out]
1.84
0.45

Okay, here is my list. What is self-cleavage for each of these?
1. UACGUAGGUGGUUUUCCCCUGAUAGUGCUAAGGGGGCCUGGAAGUUUGGACUGGGCAGAGCUCAACACAGCGUGGCAAAGUGGCUGUGGCUAGACUGCAUCUCUGGAUUCCUCGUCACUCAGCAGGGCAUCUCUGGGAGAAAUGCC [C99A A136G]
2. UACGUAGGUGGUUUUCCCCUGAUAGUGCUAAGGGGGCCUGGAAGUUUGGACUGGGCAGAGCUCAACACAGCGUGGCAAAGUGGCUGUGGCUAGACUACCACUCUGGAUUCCUCGUCACUCAGCAGGGCAUCUCUGAGAGAAAUGCC [G97A U100A]

[out]
0.99
0.1
